molecular target: T1, Cynomolgus Factor P (cynomolgus); test: Biacore SPR, captured Factor P
T1 construct: Purified from cynomolgus serum for SET/Biacore; Factor P of cynomolgus serum in the functional assays; also called Cyno Factor P; cyno FP
OBSERVABLE: Kd
Give your result as the value with the unit written after it.

Answered examples (10):
>>> test_value("NVS962-S (Fab, V domains shown, NVS962 with heavy chain N30 replaced with serine) VH: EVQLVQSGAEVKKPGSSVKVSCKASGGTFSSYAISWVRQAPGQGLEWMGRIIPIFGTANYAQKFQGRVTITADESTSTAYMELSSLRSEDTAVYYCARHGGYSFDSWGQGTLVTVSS VL: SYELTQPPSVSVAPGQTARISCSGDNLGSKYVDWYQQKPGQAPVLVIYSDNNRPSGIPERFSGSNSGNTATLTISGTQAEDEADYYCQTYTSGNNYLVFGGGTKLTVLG")
"0.127 nM"
>>> test_value("NVS965-Q (Fab, V domains shown, NVS965 with heavy chain N30 replaced with glutamine) VH: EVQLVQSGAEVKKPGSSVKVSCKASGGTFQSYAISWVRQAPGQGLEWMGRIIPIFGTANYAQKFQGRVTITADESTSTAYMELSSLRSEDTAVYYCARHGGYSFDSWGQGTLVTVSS VL: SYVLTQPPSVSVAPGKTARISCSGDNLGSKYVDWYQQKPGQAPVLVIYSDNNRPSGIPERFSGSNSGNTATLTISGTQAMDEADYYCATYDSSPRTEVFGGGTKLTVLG")
"0.215 nM"
>>> test_value("NVS965-T (Fab, V domains shown, NVS965 with heavy chain N30 replaced with threonine) VH: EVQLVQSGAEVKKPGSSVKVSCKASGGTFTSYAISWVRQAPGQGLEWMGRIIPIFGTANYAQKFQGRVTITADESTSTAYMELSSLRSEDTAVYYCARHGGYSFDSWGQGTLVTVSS VL: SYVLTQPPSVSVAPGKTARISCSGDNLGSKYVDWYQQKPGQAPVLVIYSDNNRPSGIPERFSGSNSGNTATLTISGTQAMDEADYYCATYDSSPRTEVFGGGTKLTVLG")
"0.0746 nM"
>>> test_value("NVS964 (Fab, V domains shown, Disulfide-bridged Fab; also called Fab NVS964) VH: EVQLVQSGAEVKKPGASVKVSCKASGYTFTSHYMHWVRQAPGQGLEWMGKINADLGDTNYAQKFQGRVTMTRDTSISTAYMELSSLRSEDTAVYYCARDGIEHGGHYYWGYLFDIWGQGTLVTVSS VL: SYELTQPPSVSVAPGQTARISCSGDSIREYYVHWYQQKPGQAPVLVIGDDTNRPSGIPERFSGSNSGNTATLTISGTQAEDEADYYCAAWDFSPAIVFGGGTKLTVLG")
"0.16 nM"
>>> test_value("NVS962-Q (Fab, V domains shown, NVS962 with heavy chain N30 replaced with glutamine (deamidation site removed)) VH: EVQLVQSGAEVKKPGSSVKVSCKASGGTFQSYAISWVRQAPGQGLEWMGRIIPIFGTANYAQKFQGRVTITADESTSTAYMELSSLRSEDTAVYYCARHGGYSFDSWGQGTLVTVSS VL: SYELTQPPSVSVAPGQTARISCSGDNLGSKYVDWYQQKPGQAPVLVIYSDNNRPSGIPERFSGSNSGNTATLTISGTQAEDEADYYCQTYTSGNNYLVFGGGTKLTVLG")
"0.475 nM"
>>> test_value("NVS966 (Fab, V domains shown, Disulfide-bridged Fab; also called Fab NVS966) VH: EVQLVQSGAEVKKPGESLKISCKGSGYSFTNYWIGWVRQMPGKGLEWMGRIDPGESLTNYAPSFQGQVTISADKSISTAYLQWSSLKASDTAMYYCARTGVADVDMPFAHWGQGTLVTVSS VL: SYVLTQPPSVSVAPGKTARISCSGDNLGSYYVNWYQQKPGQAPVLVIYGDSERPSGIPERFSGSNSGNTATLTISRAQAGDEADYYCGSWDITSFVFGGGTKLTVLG")
"0.21 nM"
>>> test_value("NVS967 (Fab, V domains shown, Disulfide-bridged Fab; also called Fab NVS967) VH: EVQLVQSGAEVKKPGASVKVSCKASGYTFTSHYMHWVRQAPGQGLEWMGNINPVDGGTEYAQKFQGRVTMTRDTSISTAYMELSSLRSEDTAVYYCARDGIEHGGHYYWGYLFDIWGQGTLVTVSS VL: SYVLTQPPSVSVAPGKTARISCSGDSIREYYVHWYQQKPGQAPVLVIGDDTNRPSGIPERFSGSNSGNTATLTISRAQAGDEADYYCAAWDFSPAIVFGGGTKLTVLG")
"0.315 nM"
>>> test_value("NVS965 (Fab, V domains shown, Disulfide-bridged Fab; also called Fab NVS965) VH: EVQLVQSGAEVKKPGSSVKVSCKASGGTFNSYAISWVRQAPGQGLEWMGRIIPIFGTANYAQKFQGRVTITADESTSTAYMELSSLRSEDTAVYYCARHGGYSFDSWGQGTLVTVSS VL: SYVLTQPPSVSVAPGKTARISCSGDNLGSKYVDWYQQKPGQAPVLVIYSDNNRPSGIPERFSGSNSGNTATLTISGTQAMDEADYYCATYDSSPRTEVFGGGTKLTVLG")
"0.028 nM"
>>> test_value("NVS962-S31A (Fab, V domains shown, NVS962 with heavy chain serine 31 replaced with alanine) VH: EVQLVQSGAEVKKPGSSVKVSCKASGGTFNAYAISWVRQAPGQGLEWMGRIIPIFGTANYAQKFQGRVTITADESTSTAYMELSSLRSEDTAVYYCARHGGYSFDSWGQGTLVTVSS VL: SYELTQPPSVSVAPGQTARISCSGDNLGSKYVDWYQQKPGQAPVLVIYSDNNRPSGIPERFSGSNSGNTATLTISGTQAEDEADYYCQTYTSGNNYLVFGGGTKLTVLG")
"0.234 nM"
>>> test_value("NVS962-G (Fab, V domains shown, NVS962 with heavy chain N30 replaced with glycine) VH: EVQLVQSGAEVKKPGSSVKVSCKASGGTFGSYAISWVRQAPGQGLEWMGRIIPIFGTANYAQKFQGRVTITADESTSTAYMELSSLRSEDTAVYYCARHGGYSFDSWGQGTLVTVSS VL: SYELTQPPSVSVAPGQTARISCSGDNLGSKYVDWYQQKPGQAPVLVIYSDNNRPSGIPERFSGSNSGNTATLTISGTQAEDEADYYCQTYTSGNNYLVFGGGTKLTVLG")
"1.08 nM"

# next binder below
### Prompt Value lookup for Kd; key = NVS962 (Fab, V domains shown, also called Fab NVS962) VH: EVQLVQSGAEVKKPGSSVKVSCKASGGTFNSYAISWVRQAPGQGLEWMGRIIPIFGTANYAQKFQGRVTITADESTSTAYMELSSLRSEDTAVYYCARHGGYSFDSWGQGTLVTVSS VL: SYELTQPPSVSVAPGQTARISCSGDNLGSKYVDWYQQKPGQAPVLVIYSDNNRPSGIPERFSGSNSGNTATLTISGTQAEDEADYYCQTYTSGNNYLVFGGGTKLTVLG
### Response 0.182 nM
